Assay summary: 28-day multiple dose study, monkey
Assay type: in vivo, monkeys
Test parameters: both sexes, plasma, iv; monkey male & female, 25 mg/kg i.v. daily, final dose Day 28 (NOAEL)
Quantity kind: AUC(0-inf) (µg·h/mL)
Output spec: scalar in µg·h/mL, unitless text.

INPUT: Fill in: AUC(0-inf) of CCCCCCC(C)(C)c1cc(O)c2c(c1)OC(C)(C)[C@H]1CC=C(CO)C[C@H]21 [dexanabinol] is ___
OUTPUT: 193

###

Assay summary: 28-day multiple dose study, monkey
Type: in vivo, monkeys
Test parameters: plasma, iv; monkey male, 25 mg/kg i.v. daily, final dose Day 28 (NOAEL)
Quantity kind: AUC(0-inf) (µg·h/mL)
Output spec: scalar in µg·h/mL, unitless text.

INPUT: Fill in: AUC(0-inf) of CCCCCCC(C)(C)c1cc(O)c2c(c1)OC(C)(C)[C@H]1CC=C(CO)C[C@H]21 is ___
OUTPUT: 208
